Provenance of the data: patent US10927123B2

Target: Beta-3 Adrenergic Receptor (Homo sapiens (Human))
Sequence (P13945 whole entry, species assumed): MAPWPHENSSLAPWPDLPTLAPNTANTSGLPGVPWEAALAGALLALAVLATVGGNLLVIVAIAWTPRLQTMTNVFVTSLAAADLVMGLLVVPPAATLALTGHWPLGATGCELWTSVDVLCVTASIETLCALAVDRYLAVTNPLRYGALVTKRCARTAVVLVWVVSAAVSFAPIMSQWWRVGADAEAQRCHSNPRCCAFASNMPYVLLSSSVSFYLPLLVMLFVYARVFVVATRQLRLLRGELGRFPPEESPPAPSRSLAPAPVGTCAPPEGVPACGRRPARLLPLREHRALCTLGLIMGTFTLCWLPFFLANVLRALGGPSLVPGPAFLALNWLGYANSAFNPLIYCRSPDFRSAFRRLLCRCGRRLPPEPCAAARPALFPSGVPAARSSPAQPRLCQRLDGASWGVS
Experiment: HTRF cAMP antagonist assay (IC50 determination)
Conditions: CHO-K1 cells stably expressing recombinant receptor; antagonism of isoproterenol at EC90; cAMP readout
assay_metric: IC50 (nM)

// known answers, use as guide
INSERT INTO results (molecule, readout_units, measured_result) VALUES
  ('NCc1ccc(-c2cccc(S(=O)(=O)N3CCC4(CC3)C[C@H](NC[C@H](O)COc3cccc(S(=O)(=O)C5(CO)CC5)c3)CO4)c2)cc1', 'nM', 27.7),
  ('CCn1cc(S(=O)(=O)N2CCC3(CC2)C[C@@H](NC[C@H](O)COc2cccc(S(=O)(=O)C(C)C)c2)CO3)c(=O)c2ccccc21', 'nM', 42.3);

(I) CN1CCN(C)c2ncc(S(=O)(=O)N3CCC4(CC3)C[C@@H](NC[C@H](O)COc3cccc(S(=O)(=O)C5(CO)CC5)c3)CO4)cc21
(II) CN1CCOc2ncc(S(=O)(=O)N3CCC4(CC3)C[C@@H](NC[C@H](O)COc3cccc(S(=O)(=O)CCCO)c3)CO4)cc21
(III) COc1cc(-c2ccc(CN)cc2)cc(S(=O)(=O)N2CCC3(CC2)C[C@H](NC[C@H](O)COc2cccc(S(=O)(=O)C4CC4)c2)CO3)c1
(IV) CS(=O)(=O)c1cccc(OC[C@@H](O)CNC2COC3(CCN(C(=O)Cc4csc(N)n4)CC3)C2)c1 (stereo partly drawn)
Sequence the entries by IC50, beginning with the highest number. Output spec: labels arranged per the requested ranking.
IV, II, I, III
(IV: 1990 nM, II: 227 nM, I: 47.6 nM, III: 11.6 nM)
